- Method Summary: amyloid nucleation score (Sup35N fusion, yeast selection) (log enrichment); library NNK2; higher = more nucleation; inactive = no reads after selection;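 note: zero at mode of non-aggregating sequences after 7 days selection at 30°C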
Recorded Endpoint: amyloid nucleation score
Write no unit; give the number alone.

Check out these entries, answers already filled in.
| Substance | Observed Result |
| --- | --- |
| VLSTWWVSYAGTVFVRSEGT | 3.58 |
| THSRRLRLNAKMCLHFLWYR | -0.115 |
| TVVFYNNIIFGFDFSSAKWL | 6.21 |

What does the data say about its amyloid nucleation score? Entry: `RIHYYVVLCLGSRRSTFGLR`
-0.171

Fill blank: measured amyloid nucleation score of the substance `FDTGSRYFFNELRGGNCHCW` is ____.
1.26

Value lookup for amyloid nucleation score; key = `DSWLFGDINRCFWLVKCYHR`
2.69

Given the entry `ADRWYYMQPNTLCSNVTANA` , report its measured amyloid nucleation score.
1.26

I am curious: what amyloid nucleation score value has been reported for `RSKSCSVVVRL` ?
0.813

Tell me the measured amyloid nucleation score of `ICFVFF` , please.
-0.777

Requested field: amyloid nucleation score. Item: `TRVNNGSTVHNKMLTS`
0.634

Bench note: what amyloid nucleation score did `IGSVGTPWE` show?
-0.042

What does the record list as amyloid nucleation score for `FSFLKLIADPATLVIGTDSW` ?
-0.492

Please report the recorded amyloid nucleation score for `YFYPFLCLTKNQLVLSNRRT` .
4.47

Please report the recorded amyloid nucleation score for `TTDCSNDLSAILVCLSHGAL` .
-0.19

Using the record for `SLHVTGWFTSDVVFNLWVDV` , report its amyloid nucleation score.
-0.145

Data request, read-out amyloid nucleation score, for `KRNVLRVTSCHKEYSVGSVP`
0.739
